Cited source: paper PMC5125662

Target Of Assay: TcDHODH (Trypanosoma cruzi, UniProt Q4D3W2)
Construct: made in house
Sequence (Q4D3W2 1-314): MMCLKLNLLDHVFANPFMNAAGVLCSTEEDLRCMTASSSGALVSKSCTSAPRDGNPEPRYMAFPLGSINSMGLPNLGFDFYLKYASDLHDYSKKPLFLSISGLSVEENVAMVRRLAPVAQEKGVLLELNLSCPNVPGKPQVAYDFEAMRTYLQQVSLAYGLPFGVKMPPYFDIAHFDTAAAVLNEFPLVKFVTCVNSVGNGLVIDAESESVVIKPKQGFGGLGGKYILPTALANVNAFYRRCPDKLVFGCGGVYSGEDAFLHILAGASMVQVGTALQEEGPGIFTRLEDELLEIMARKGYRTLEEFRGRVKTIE
Test Method Notes: biochemical
Applied Conditions: calculated from IC50 by Cheng-Prusoff equation, Km for dihydroorotate […]; read-out: TcDHODH Ki^app
Metric Name: pKi
Schema: pKi number; meaning minus log10 of the concentration expressed in molar units.

Please give measured pKi of the following entry: O=C(O)c1cc(=O)[nH]c(=O)[nH]1 [ORO, orotate, reference compound] 5.26

---

Target Of Assay: TcDHODH (Trypanosoma cruzi, UniProt Q4D3W2)
Construct: made in house
Test Method Notes: biochemical
Applied Conditions: read-out: TcDHODH Ki^app
Metric Name: Ki

# return Ki of CC(C)(C)CCc1c(C(=O)O)[nH]c(=O)[nH]c1=O (system: TcDHODH (Trypanosoma cruzi, UniProt Q4D3W2)) > 19.7 µM
